Each recorded value in this set is attributed to patent US20250333397A1.

The following compounds are listed with their measured IC50 values.
# System: HTT mRNA
# PROTOCOL TEXT: RT-qPCR splicing assay, HTT canonical (CJ) and alternative (AJ) junction mRNA
# Format: cell-based, human
# STUDY CONDITIONS: Homo sapiens, 24 h, Table 3A; A673 or K562 cells, 24 h treatment; read-out: HTT CJ (IC50, decrease in CJ mRNA)

# COMPOUND, IC50
measured = [
    ("NCCNC1CCN(c2ccc(-c3ccc(-c4cn[nH]c4)cc3O)nn2)C1 (centres unmarked)", "100 to 1000 nM"),
    ("Cc1ncc(-c2cc(O)c(-c3ccc(N4CC[C@H](NCC5CCC5)C4)nn3)cc2F)s1", "< 100 nM"),
    ("Cc1nc(C)c(-c2cc(O)c(-c3ccc(N4CC[C@@H](NC5CCC5)C4)nn3)cc2F)s1", "100 to 1000 nM"),
    ("COc1cc(-c2cc(O)c(-c3ccc(N4CC[C@@H](NC(C)(C)C)C4)nn3)cc2F)cnn1", "< 100 nM"),
    ("COc1cc(-c2cc(O)c(-c3ccc(N4CC[C@@](C)(NCC5CC5)C4)nn3)cc2F)cnn1", "< 100 nM"),
    ("COc1cc(-c2ccc(-c3ccc(N4CC[C@@H](N[C@H]5C[C@@H](F)C5)C4)nn3)c(O)c2)ncn1", "< 100 nM"),
    ("Oc1cc(-c2cn[nH]c2)c(F)cc1-c1ccc(N2CC[C@@H](NC3CC3)C2)nn1", "< 100 nM"),
    ("Cc1cnc(-c2cc(O)c(-c3ccc(N4CCC(NC5CCC5)C4)nn3)cc2F)s1 (centres unmarked)", "> 10000 nM"),
]
